Biological target: hP2X (Homo sapiens, UniProt P51575)
Sequence (P51575 whole entry): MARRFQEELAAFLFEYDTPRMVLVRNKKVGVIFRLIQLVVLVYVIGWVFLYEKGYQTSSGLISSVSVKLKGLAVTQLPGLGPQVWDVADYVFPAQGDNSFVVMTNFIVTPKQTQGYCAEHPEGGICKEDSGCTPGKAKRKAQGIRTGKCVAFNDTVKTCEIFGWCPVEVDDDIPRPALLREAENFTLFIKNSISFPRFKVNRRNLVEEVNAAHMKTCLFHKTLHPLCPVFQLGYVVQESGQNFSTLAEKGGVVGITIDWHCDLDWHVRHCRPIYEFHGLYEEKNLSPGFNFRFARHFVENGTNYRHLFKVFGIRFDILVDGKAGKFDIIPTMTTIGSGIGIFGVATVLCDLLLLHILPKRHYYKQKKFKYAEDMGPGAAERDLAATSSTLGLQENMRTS
Assay: antagonist inhibition of ATP-evoked currents in Xenopus oocytes expressing hP2X
pIC50: −log10 of the molar value. Structures can show the parent of a compound that is named as a salt.
molecules and their reported pIC50

MOLECULE | pIC50
Cc1ncc(COP(=O)(O)O)c(C=O)c1O [P5 P, Pyridoxal 5-phosphate monohydrate] | ~4.70
O=S(=O)(O)c1cc(N=C=S)ccc1C=Cc1ccc(N=C=S)cc1S(=O)(=O)O [DIDS, disodium salt] | ~6.00
Cc1nc(N=Nc2ccc(S(=O)(=O)O)cc2S(=O)(=O)O)c(COP(=O)(O)O)c(C=O)c1O | ~6.00
